- assay_comment: amyloid nucleation score (Sup35N fusion, yeast selection) (log enrichment); library NNK2; higher = more nucleation; inactive = no reads after selection;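 further: zero at mode of non-aggregating sequences after 7 days selection at 30°C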
quantity: amyloid nucleation score
Format: numeric value only, no unit, no commentary.

Example sequences with recorded amyloid nucleation score:
- IGESLRYIRRVILSMIFHLA: 1.18
- SNSCHNAATRGYR: 0.315
- VHNCCTVVSLRREDESVYTN: -0.146
- VWNSIDTIYIYRHNYGFFYF: 0.751
- DYIFGYSTILFVMLCIHNFY: -1.35

Returns the measured amyloid nucleation score for the input sequence. Input: LLNLTSLLRKCLFKNRRKFI
-0.972

Fill in the blank: the reported amyloid nucleation score of DFINIPSVFIIYMK is ____.
1.73

Reported amyloid nucleation score, sequence WHIFRNYAFIRVSM : ____
0.036

Would you mind telling me what amyloid nucleation score value was observed for SARSIERSDYPMINARHHAC ?
0.031
